Sourced from paper PMC5233613

# system.tested: LC3B R10E (human, UniProt Q9GZQ8 1-120, R10E)
# test.description: ITC; MicroCal iTC200, 25 °C; proteins 0.25 mmol/L and peptides 3 mmol/L, dialyzed against buffer B (20 mmol/L Tris-HCl, 200 mmol/L NaCl, 1 mmol/L EDTA, pH 8.0); single binding site model
# test.settings: both partners purified
Non-standard residues stand in square brackets, D forms with d. No end group written: not given here. pS = N[C@@H](COP(=O)(O)O)C(=O)O
outcome.measure: Kd (µM)
One number for each entry, in µM.

[in] Given DYE[pS]DDDSYEVLDLTE (also called FUNDC1 pS13; pS13 peptide; source: synthetic peptide (GL Biochem, Shanghai)) [FUNDC1 LIR peptide 10-25 phosphorylated at Ser13] , state its recorded Kd.
[out] 34
